Below, each entry is listed with its recorded EC50.
# MEASURED ON: UniProtKB P30613
# PROTOCOL DESCRIPTION: PKR (wild type) enzyme AC50 assay, LDH/NADH-coupled, absorbance at 340 nm
# Assay type: biochemical
# MEASUREMENT SETUP: Table 4; AC50, enzyme assay; read-out: PKR WT

Sample answers from the record:
>  <COMPOUND>
Cn1c2nc(C(C(N)=O)c3cc[nH]n3)sc2c2cnn(Cc3cccc4[nH]ncc34)c(=O)c21 (centres unmarked)

>  <READOUT KIND>
EC50

>  <OBSERVED MEASUREMENT>
< 0.3 µM

$$$$
>  <COMPOUND>
Cn1c2nc(Cc3n[nH]cc3F)sc2c2cnn(Cc3ccccc3)c(=O)c21

>  <READOUT KIND>
EC50

>  <OBSERVED MEASUREMENT>
< 0.3 µM

$$$$
>  <COMPOUND>
Cn1c2nc(Cc3cc[nH]n3)sc2c2cnn(Cc3cn4cccnc4n3)c(=O)c21

>  <READOUT KIND>
EC50

>  <OBSERVED MEASUREMENT>
0.301 to 0.8 µM

$$$$
>  <COMPOUND>
Cn1c2nc(Cc3cc[nH]n3)sc2c2cnn(Cc3nccc4[nH]ncc34)c(=O)c21

>  <READOUT KIND>
EC50

>  <OBSERVED MEASUREMENT>
< 0.3 µM

$$$$

Test system UniProtKB P30613; read-out EC50; what value for Cn1c2nc([C@H](O)c3cc[nH]n3)sc2c2cnn(Cc3cccc4[nH]ncc34)c(=O)c21 ?
< 0.3 µM

Then what about the compound Cn1c2nc(Cc3cc[nH]n3)sc2c2cnn(Cc3ccccc3)c(=O)c21 ?
< 0.3 µM

Another: Cn1c2nc(Cc3cc(Cl)[nH]n3)sc2c2cnn(Cc3cccc4[nH]ncc34)c(=O)c21
< 0.3 µM

Now give it for Cn1c2nc(Cc3cc[nH]n3)sc2c2cnn(Cc3ccc4cc[nH]c4n3)c(=O)c21 too.
< 0.3 µM

Now the compound CSc1nc2c(s1)c1cnn(Cc3ccccc3)c(=O)c1n2-c1nccs1
> 0.8 µM

----------
# MEASURED ON: wild type PKR (Homo sapiens)
# PROTOCOL DESCRIPTION: PKR (wild type) enzyme AC50 assay, LDH/NADH-coupled, absorbance at 340 nm
# Type: biochemical
# MEASUREMENT SETUP: Table 2; enzyme assay; read-out: PKR WT AC50
Below, each of the compounds is paired with its reported AC50 value.

I would be grateful if you could share the reported AC50 for Cn1c2nc(C#N)sc2c2cnn(Cc3cccc4[nH]ncc34)c(=O)c21 .
< 300 nM

And the next one, COc1cccc(Cn2ncc3c4sc(Sc5ccccc5)nc4n(C)c3c2=O)c1 ?
< 300 nM

----------
# MEASURED ON: wild type PKR (Homo sapiens, UniProt P30613)
# Sequence (P30613 whole entry): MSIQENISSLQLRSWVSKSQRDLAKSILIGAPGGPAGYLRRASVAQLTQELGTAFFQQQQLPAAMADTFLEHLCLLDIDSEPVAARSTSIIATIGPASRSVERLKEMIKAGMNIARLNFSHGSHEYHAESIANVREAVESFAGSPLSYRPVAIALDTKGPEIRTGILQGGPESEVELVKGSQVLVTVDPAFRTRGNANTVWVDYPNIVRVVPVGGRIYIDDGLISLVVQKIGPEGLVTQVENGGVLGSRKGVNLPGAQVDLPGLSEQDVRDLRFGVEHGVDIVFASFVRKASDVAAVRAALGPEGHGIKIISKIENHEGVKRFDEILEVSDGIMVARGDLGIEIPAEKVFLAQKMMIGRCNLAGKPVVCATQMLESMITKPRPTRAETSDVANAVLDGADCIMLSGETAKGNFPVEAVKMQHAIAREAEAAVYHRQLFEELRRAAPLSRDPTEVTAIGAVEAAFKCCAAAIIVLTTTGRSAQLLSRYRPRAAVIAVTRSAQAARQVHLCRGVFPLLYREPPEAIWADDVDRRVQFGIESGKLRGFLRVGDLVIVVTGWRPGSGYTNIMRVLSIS
# PROTOCOL DESCRIPTION: Cell based ATP assay in purified red blood cells (Cell-Titer-Glo)
# Design: endogenous in cells; host or cells: purified red blood cells from healthy volunteers
# MEASUREMENT SETUP: Table 2; RBCs, overnight at 37° C., ATP levels
We begin with a simple list: items and their reported AC50.

>  <COMPOUND>
COc1ccc(Cn2ncc3c4sc(Cc5cc[nH]n5)nc4n(C)c3c2=O)cc1

>  <AC50>
≤ 1000 nM

$$$$
>  <COMPOUND>
Cn1c2nc([S+](C)[O-])sc2c2cnn(Cc3ccc4c(c3)OCCO4)c(=O)c21 (centres unmarked)

>  <AC50>
> 1000 nM

$$$$
>  <COMPOUND>
Cn1c2nc(Cc3cccc(S(N)(=O)=O)c3)sc2c2cnn(Cc3cccc4[nH]ncc34)c(=O)c21

>  <AC50>
≤ 1000 nM

$$$$
>  <COMPOUND>
COC(=O)Cc1nc2c(s1)c1cnn(Cc3cccc4[nH]ncc34)c(=O)c1n2C

>  <AC50>
> 1000 nM

$$$$
>  <COMPOUND>
COc1ccc(Cc2nc3c(s2)c2cnn(Cc4cccc5[nH]ncc45)c(=O)c2n3C)cn1

>  <AC50>
≤ 1000 nM

$$$$

Looking for the measured AC50 of Cn1c2nc(Cc3ccccn3)sc2c2cnn(Cc3cccc4[nH]ncc34)c(=O)c21 , can you help?
≤ 1000 nM

----------
This section presents compounds with their documented EC50 values.
# MEASURED ON: wild type PKR (Homo sapiens, UniProt P30613)
# PROTOCOL DESCRIPTION: Cell based ATP assay in purified red blood cells (Cell-Titer-Glo)
# Set-up: endogenous in cells; host or cells: purified red blood cells from healthy volunteers
# MEASUREMENT SETUP: Table 4; AC50, RBCs, overnight at 37° C., ATP levels
# Protocol: Example 16. Red Blood Cell (RBC) Purification Fresh blood drawn from healthy volunteers into K2EDTA tubes was collected. Whole blood was pelleted by spinning at 500 g for 10 minutes. Cut transfusion bag port off of Purecell leukocyte reduction neofilter (Fisher NC0267633) one (1) inch above filter. […] For cell based ATP assays, the compound as described herein was prepared in 100% DMSO as a 10 mM stock. […] ATP levels were read out using Cell-Titer-Glo (Promega).

>  <COMPOUND>
Cn1c2nc(Cc3csc(C(N)=O)n3)sc2c2cnn(Cc3cccc4[nH]ncc34)c(=O)c21

>  <READOUT KIND>
EC50

>  <OBSERVED MEASUREMENT>
> 1000 nM

$$$$
>  <COMPOUND>
Cn1ncc2cc(Cn3ncc4c5sc(Cc6cc[nH]n6)nc5n(C)c4c3=O)ccc21

>  <READOUT KIND>
EC50

>  <OBSERVED MEASUREMENT>
≤ 1000 nM

$$$$
>  <COMPOUND>
Cn1c2nc(Cc3cc[nH]n3)sc2c2cnn(Cc3cccc4[nH]cnc34)c(=O)c21

>  <READOUT KIND>
EC50

>  <OBSERVED MEASUREMENT>
≤ 1000 nM

$$$$
>  <COMPOUND>
Cn1c2nc(C(C(N)=O)c3cc[nH]n3)sc2c2cnn(Cc3cccc4[nH]ncc34)c(=O)c21 (stereo not shown)

>  <READOUT KIND>
EC50

>  <OBSERVED MEASUREMENT>
≤ 1000 nM

$$$$
>  <COMPOUND>
Cc1nc2c(s1)c1cnn(Cc3cccc(C(N)=O)c3)c(=O)c1n2C

>  <READOUT KIND>
EC50

>  <OBSERVED MEASUREMENT>
> 1000 nM

$$$$

Please report the recorded EC50 for Cn1c2nc([C@H](O)c3cc[nH]n3)sc2c2cnn(Cc3cccc4[nH]ncc34)c(=O)c21 .
≤ 1000 nM

Note, next up: Cn1c2nc(Cc3cn[nH]n3)sc2c2cnn(Cc3cccc(OC(F)(F)F)c3F)c(=O)c21
≤ 1000 nM

Moving on to the next compound: COc1ncc(Cc2nc3c(s2)c2cnn(Cc4cccc5[nH]ncc45)c(=O)c2n3C)cn1
≤ 1000 nM

Also check Cn1c2nc(Cc3cc[nH]n3)sc2c2cnn(Cc3cccc4c3NS(=O)(=O)N4)c(=O)c21
> 1000 nM

Repeat for the following compound: Cn1c2nc(Cc3cc[nH]n3)sc2c2cnn(Cc3n[nH]c4ccccc34)c(=O)c21
≤ 1000 nM

Next: Cn1c2nc(Cc3cc[nH]n3)sc2c2cnn(Cc3ccc4c(n3)NCC4)c(=O)c21
≤ 1000 nM

// repeat for Cn1c2nc(Cn3cnnc3)sc2c2cnn(Cc3cccc4[nH]ncc34)c(=O)c21 and report
> 1000 nM

And COc1ncccc1Cc1nc2c(s1)c1cnn(Cc3cccc4[nH]ncc34)c(=O)c1n2C ?
≤ 1000 nM

Check Cn1c2nc(Cc3cc[nH]n3)sc2c2cnn(Cc3ccc4cc(F)[nH]c4n3)c(=O)c21 too.
≤ 1000 nM

Lookup Cn1c2nc(Cc3cc[nH]n3)sc2c2cnn(CCc3cccc(N)n3)c(=O)c21
≤ 1000 nM

What about Cn1c2nc(Cc3cc[nH]n3)sc2c2cnn(Cc3n[nH]c4ncccc34)c(=O)c21 ?
≤ 1000 nM

----------
# MEASURED ON: PKR R510Q (Homo sapiens, UniProt P30613, R510Q)
# Sequence (P30613 whole entry R510Q): as the sequence (P30613 whole entry) above, with R510Q counted along it
# PROTOCOL DESCRIPTION: PKR mutant assay (R510Q), AC50, LDH/NADH-coupled, absorbance at 340 nm
# Type: biochemical
# MEASUREMENT SETUP: Table 2; enzyme assay; read-out: PK R510Q AC50
# Procedure: Example 11. PKR Mutant Assay PKR or PKR mutant enzyme solution was diluted into a reaction mix, which contains 1× buffer (100 mM KCl, 50 mM Tris pH 7.5, 5 mM MgCl2) as well as PEP (conc depends on enzyme), 180 μM NADH, 0.5 units LDH, 1 mM DTT, 0.03% BSA; final assay concentrations after 1.11 fold dilution are indicated. […] 20 uL ADP was added to start reaction at room temperature and reaction progress was measured as changes in absorbance at 340 nm wavelength at room temperature. […]
Listed compounds paired with reported AC50

Example entries and their recorded answers appear below.
>  <COMPOUND>
COc1cccc(Cn2ncc3c4sc(C(F)(F)c5ccccc5)nc4n(C)c3c2=O)c1

>  <AC50>
< 300 nM

$$$$
>  <COMPOUND>
CC(O)c1cccc(Cn2ncc3c4sc([S+](C)[O-])nc4n(C)c3c2=O)c1 (centres unmarked)

>  <AC50>
301 to 800 nM

$$$$
>  <COMPOUND>
Cc1nc2c(s1)c1cnn(Cc3c[nH]cn3)c(=O)c1n2C

>  <AC50>
> 800 nM

$$$$

Look at this compound and give its reported AC50. Cn1c2nc(C(N)=O)sc2c2cnn(Cc3cccc4[nH]ncc34)c(=O)c21
301 to 800 nM

Next compound: Cn1c2nc(CNS(C)(=O)=O)sc2c2cnn(Cc3cccc4[nH]ncc34)c(=O)c21
301 to 800 nM

Can you handle Cn1c2nc(SCc3ccccc3)sc2c2cnn(Cc3cccc4[nH]ncc34)c(=O)c21 next?
301 to 800 nM

Try this compound next: COc1cccc(Cn2ncc3c4sc(C(O)c5ccccc5)nc4n(C)c3c2=O)c1 (centres unmarked)
< 300 nM

What about this compound? Cc1nc2c(s1)c1cnn(Cc3cccc(C(C)N)c3)c(=O)c1n2C (centres unmarked)
< 300 nM
